# tgt: human SGLT2 (Homo sapiens (Human), UniProt P31639)
# Sequence (P31639 whole entry): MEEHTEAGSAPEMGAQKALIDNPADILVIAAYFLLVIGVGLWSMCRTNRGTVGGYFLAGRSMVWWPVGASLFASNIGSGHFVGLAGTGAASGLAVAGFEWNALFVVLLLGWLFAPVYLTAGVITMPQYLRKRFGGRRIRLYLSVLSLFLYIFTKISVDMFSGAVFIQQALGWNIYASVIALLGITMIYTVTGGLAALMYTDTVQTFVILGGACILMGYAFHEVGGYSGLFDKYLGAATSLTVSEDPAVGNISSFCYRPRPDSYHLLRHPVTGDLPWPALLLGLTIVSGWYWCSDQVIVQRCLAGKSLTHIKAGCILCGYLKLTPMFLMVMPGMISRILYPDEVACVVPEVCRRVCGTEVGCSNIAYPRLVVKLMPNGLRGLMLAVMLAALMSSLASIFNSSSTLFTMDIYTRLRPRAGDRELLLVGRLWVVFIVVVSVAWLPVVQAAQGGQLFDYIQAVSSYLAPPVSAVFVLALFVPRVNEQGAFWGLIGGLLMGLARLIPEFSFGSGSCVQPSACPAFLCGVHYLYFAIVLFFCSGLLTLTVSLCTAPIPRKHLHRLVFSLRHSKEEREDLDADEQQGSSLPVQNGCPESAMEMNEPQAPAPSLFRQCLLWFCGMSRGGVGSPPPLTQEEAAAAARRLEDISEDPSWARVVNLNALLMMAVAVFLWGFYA
# procedure-summary: Inhibitory effects on human SGLT2 activities (14C-AMG uptake, sodium-dependent glucose transport assay)
# condition-details: CHO cells stably expressing hSGLT2, 37° C., 2 h, single determinations
# Source text: Test 1: Cloning and Cell Line Construction for Human SGLT2 Human SGLT2 (hSGLT2) gene was amplified by PCR from cDNA-Human Adult Normal Tissue Kidney (Invitrogen). The hSGLT2 sequence was cloned into pcDNA3.1(+) for mammalian expression and stably transfected into chinese hamster ovary (CHO) cells. SGLT2-expressing clones were selected based on resistance to G418 antibiotic (Geneticin) and activity in the ^14C-α-methyl-D-glucopyranoside (^14C-AMG) uptake assay. […]
readout-kind: pIC50
In textbook form, pIC50 equals minus log to base ten of the concentration in mol/L.

Solved entries:
So what's the measured pIC50 for this one? Cc1c(Br)cc([C@@H]2O[C@H](CO)[C@@H](O)[C@H](O)[C@H]2O)cc1Cc1ccc2c(c1)OCCO2 [Example E085]
8.74

Quick one: CCOc1ccc(Cc2cc([C@@H]3O[C@H](CO)[C@@H](O)[C@H](O)[C@H]3O)cc(-c3cccc(C#N)c3)c2C)cc1 [Example E087]
7.41

Same lookup for CCN(CC)c1ccc(Cc2cc([C@@H]3O[C@H](CO)[C@@H](O)[C@H](O)[C@H]3O)ccc2Cl)cc1 [Example E210] , please.
7.05

Next compound up: COc1ccc(Cc2cc([C@@H]3O[C@H](CO)[C@@H](O)[C@H](O)[C@H]3O)c3c(c2Cl)CC(C)(C)O3)cc1 [Example E219]
8.79

Try CCOc1ccc(Cc2cc([C@@H]3O[C@H](CO)[C@@H](O)[C@H](O)[C@H]3O)c3c(c2Cl)OCC3C)cc1 (some centres unmarked) [Example E224] next.
9.06

Turning now to a further record.
What measured pIC50 goes with CC1Cc2c([C@@H]3O[C@H](CO)[C@@H](O)[C@H](O)[C@H]3O)cc(Cc3ccc(C4CC4)cc3)c(Cl)c2O1 (some centres unmarked) [Example E138] ?
8.95
